Overview of reported terephthalic acid across a group of sequences:
Experiment: terephthalic acid (TPA) released, HPLC; higher = more TPA released; extreme values may be limits of the assay
Details: PET substrate: cryPow; 70 °C; pH 7.5; 24 h
Value expressed in mM; do not type the unit.

sequence chain	readout kind	unit abbrev	numeric readout
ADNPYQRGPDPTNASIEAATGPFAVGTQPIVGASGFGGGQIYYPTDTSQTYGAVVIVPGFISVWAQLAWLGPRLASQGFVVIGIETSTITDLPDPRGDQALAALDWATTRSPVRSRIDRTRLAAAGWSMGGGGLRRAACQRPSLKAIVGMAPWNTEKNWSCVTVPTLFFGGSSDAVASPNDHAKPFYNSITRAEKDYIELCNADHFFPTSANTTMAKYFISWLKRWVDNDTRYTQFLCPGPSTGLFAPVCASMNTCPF [CaPETaseM9]	terephthalic acid	mM	0.0454
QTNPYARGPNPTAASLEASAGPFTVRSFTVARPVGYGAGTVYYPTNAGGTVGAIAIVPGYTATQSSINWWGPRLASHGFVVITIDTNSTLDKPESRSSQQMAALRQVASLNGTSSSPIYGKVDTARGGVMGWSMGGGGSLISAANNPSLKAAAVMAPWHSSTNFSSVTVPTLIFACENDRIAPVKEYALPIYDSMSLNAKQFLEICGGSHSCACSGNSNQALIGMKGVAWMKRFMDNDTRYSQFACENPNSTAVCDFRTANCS [HotPETase]	terephthalic acid	mM	0.262

Let us move to another entry and its terephthalic acid.
*Q* I would be grateful if you could share the reported terephthalic acid for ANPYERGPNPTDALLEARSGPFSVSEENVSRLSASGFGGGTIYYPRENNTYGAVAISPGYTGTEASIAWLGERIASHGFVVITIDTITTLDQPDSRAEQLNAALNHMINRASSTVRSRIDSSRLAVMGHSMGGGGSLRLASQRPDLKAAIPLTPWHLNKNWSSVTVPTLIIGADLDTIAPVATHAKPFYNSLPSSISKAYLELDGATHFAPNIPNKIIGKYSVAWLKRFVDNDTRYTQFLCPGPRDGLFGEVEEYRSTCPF [TfCut2] .
*A* 0

###

Experiment: terephthalic acid (TPA) released, HPLC; higher = more TPA released; extreme values may be limits of the assay
Conditions: PET substrate: cryPow; 60 °C; pH 5.5; 24 h
Reported terephthalic acid is given for each of the following sequences.
Report only the number, with the unit mM understood.

sequence chain	terephthalic acid / mM
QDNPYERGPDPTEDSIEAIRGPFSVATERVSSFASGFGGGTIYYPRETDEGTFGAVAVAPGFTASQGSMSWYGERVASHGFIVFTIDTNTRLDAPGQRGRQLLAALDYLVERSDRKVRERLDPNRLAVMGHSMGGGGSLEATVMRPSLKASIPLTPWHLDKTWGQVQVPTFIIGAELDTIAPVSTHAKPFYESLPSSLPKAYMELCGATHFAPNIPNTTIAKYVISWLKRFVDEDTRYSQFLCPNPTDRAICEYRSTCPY [Cut190*SS]	0.0115

*Q* terephthalic acid for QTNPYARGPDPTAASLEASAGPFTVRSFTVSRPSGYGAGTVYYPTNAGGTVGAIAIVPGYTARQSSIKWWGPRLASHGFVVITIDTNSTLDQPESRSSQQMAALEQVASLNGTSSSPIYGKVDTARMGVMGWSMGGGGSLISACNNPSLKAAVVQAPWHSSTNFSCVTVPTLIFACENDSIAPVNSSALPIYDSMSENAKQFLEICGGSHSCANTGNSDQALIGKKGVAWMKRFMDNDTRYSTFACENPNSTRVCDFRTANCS [Z1-PETase] ?
*A* 0.0408

###

Assay: PET hydrolysis product formed (TPA+MHET+BHET, UV-Vis) per mg enzyme (mmol/mg enzyme); higher = more PET depolymerisation activity; extreme values may be limits of the assay
Details: PET substrate: cryPow; 60 °C; pH 5.5; 24 h
PET hydrolysis product formed: recorded values
Give only the figure.

A selection of reference data follows.
sequence chain	PET hydrolysis product formed
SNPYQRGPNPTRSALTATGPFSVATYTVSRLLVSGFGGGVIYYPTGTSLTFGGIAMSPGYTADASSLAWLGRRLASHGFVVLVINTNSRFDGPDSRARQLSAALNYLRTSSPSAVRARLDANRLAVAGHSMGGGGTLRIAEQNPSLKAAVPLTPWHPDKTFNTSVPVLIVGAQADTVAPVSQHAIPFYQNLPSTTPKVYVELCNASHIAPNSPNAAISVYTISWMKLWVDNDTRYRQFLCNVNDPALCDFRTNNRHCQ [LCC-ICCG I6M]	0.0583
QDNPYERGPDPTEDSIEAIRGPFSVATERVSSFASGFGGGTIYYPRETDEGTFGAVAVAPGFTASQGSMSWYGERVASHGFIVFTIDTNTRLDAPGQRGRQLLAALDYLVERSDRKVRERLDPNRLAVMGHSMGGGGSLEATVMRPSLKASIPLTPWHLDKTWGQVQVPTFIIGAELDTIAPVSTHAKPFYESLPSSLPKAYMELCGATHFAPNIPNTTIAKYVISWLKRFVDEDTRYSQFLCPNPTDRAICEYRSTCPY [Cut190*SS]	0.0274
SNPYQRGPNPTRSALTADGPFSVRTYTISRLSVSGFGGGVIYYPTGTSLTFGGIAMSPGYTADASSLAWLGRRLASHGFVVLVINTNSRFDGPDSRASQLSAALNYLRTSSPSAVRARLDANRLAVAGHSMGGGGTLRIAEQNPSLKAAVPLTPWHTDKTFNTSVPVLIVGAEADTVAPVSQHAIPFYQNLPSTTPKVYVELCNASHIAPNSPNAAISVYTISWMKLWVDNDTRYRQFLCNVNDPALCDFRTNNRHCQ [LCC-ICCG RIP]	0.0628

*Q* Given the sequence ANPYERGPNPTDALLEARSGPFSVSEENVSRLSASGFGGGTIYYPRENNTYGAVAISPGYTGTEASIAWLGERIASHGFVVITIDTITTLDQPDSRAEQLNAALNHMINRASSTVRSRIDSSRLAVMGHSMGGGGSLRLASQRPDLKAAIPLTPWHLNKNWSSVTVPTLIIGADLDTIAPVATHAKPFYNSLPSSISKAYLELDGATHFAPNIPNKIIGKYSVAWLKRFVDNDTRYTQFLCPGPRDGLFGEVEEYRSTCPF [TfCut2] , what is its reported PET hydrolysis product formed?
*A* 0

###

BHET released for assorted sequences
Experiment: BHET released, HPLC; higher = more BHET released; extreme values may be limits of the assay
Settings: PET substrate: cryPow; 60 °C; pH 4.5; 24 h
Report only the number, with the unit mM understood.

Sample answers from the record:
sequence chain	BHET released (mM)
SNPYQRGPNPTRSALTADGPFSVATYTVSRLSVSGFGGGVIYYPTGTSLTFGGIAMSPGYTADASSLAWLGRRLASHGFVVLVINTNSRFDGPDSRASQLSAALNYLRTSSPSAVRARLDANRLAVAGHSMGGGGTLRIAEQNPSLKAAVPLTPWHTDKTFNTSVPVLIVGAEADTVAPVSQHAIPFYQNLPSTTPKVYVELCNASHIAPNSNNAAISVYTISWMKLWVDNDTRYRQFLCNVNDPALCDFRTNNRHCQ [LCC-ICCG]	0
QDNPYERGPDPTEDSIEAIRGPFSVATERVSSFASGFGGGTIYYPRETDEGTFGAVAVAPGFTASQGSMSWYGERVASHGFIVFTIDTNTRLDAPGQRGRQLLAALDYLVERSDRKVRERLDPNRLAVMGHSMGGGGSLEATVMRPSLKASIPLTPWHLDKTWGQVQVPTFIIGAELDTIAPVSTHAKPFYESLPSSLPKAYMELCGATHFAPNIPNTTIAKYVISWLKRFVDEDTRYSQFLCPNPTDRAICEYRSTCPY [Cut190*SS]	0

Now for a further sequence.
*Q* May I ask what BHET released has been recorded for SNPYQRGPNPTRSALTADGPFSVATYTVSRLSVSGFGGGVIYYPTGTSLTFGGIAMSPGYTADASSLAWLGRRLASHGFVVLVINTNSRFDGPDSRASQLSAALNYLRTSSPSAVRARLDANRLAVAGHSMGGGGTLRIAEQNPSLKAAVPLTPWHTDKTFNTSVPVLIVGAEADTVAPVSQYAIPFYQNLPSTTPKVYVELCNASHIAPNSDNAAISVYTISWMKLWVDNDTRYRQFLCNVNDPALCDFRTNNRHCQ [LCC-A2] ?
*A* 0.0062

###

Overview of recorded MHET released for various sequences
Test: MHET released, HPLC; higher = more MHET released; extreme values may be limits of the assay
Conditions: PET substrate: aFilm; 60 °C; pH 5.5; 24 h
Quick note: give the figure in mM, leave out the unit.

A selection of reference data follows.
sequence chain	MHET released, mM
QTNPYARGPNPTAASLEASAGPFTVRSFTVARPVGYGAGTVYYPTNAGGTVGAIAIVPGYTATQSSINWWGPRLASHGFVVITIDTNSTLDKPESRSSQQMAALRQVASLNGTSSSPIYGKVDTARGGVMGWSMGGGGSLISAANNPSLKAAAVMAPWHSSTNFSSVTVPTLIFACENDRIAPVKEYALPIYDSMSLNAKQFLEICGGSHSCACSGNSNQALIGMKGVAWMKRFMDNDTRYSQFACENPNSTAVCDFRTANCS [HotPETase]	0.282
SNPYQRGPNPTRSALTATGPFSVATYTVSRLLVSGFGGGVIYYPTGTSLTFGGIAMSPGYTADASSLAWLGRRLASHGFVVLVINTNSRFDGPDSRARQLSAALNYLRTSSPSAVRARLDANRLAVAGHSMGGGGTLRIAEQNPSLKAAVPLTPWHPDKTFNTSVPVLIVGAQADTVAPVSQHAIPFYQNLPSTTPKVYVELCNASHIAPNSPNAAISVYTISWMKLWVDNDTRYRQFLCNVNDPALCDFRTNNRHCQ [LCC-ICCG I6M]	0.339
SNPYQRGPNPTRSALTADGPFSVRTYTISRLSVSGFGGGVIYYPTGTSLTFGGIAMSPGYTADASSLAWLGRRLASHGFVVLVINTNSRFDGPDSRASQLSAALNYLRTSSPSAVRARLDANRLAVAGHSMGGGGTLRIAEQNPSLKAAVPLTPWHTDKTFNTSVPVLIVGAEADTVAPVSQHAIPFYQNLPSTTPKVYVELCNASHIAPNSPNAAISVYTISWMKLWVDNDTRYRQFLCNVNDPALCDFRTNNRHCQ [LCC-ICCG RIP]	0.19

--- query ---
*Q* Would you mind telling me what MHET released value was observed for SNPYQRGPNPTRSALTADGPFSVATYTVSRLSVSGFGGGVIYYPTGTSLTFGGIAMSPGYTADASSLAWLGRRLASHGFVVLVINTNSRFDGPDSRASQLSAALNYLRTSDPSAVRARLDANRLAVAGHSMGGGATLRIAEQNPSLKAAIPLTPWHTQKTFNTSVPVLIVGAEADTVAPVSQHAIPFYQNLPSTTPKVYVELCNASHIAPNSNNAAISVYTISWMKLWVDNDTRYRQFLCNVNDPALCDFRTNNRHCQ [LCC-ICCG DAQI] ?
*A* 0.267
